# Test: in vivo
# Condition Label: Sprague-Dawley, rat, po, 5 mg/kg
Measure Name: AUC(0-t)

[[record]]
mol = "Cc1cnc(Nc2cnn(C)c2)nc1N1CCC2(CCNC2=O)CC1"
reading = "2100 ng·h/mL"


====

# Test: in vivo
# Condition Label: Sprague-Dawley, rat, po, 5 mg/kg
Measure Name: CL/F at 24 h (mL/min/kg)

[[record]]
mol = "Cc1cnc(Nc2cnn(C)c2)nc1N1CCC2(CCNC2=O)CC1"
quantity_unit = "mL/min/kg"
reading = 41.5


====

# Test: in vivo
# Condition Label: Sprague-Dawley, rat, po, 5 mg/kg
Measure Name: half-life at 24 h (h)

[[record]]
mol = "Cc1cnc(Nc2cnn(C)c2)nc1N1CCC2(CCNC2=O)CC1"
reading = 2.8


From: ChEMBL document CHEMBL5038661
